Source: patent US9783552B2

assayed.target: sGC α1/β1 heterodimer (Homo sapiens, UniProt Q02108+Q02153)
Sequence (Q02108 whole entry): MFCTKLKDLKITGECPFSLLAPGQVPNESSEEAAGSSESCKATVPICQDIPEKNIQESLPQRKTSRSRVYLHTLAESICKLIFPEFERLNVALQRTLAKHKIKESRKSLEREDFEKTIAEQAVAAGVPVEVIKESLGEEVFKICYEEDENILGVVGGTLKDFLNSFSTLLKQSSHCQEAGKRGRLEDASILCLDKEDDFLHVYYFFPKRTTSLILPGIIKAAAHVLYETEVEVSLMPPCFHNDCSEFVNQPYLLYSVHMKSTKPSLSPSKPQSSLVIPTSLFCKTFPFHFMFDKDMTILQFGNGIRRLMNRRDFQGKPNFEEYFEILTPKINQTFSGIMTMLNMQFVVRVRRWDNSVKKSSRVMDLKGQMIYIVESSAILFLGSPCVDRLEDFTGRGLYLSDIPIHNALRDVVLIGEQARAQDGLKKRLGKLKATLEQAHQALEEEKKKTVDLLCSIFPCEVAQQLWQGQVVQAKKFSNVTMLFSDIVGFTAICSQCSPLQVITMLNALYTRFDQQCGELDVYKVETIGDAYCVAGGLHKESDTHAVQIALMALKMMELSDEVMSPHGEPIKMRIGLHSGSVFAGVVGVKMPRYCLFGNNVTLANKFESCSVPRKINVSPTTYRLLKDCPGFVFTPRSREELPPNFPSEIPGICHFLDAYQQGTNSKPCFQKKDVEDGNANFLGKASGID
Sequence (Q02153 whole entry): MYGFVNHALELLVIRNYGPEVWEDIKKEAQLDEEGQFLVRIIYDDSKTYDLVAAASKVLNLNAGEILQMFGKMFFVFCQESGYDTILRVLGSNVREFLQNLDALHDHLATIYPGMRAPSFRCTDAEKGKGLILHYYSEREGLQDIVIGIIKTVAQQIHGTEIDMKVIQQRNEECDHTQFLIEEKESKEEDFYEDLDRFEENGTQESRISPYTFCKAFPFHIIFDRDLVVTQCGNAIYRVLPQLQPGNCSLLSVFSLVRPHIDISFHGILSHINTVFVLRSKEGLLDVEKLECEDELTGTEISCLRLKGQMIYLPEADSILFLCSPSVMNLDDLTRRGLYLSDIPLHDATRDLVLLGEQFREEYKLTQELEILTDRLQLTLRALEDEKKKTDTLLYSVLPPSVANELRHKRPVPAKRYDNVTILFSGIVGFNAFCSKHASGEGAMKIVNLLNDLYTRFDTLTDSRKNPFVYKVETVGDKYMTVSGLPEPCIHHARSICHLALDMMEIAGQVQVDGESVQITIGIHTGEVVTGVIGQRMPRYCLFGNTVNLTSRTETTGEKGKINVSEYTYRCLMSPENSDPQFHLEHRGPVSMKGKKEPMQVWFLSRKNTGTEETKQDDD
test.summary: Cell-Based sGC Functional Assay (CASA Assay)
measurement.conditions: CHO-K1/sGC cells, intracellular cGMP by HTRF, 1 hr at 37° C.; IP from 4P fit; presence or absence of 1 μM DETA-NO not given
Mark satisfied only when EC50 stays strictly below 60 nM. Values equal to the cut-off are not satisfied.

Cn1ncc2c(-c3nc(N)c4c(n3)NC(=O)C4(C(=O)NC3CC3)C3CC3)nc(CCC(F)(F)C(F)(F)F)nc21 (single isomer, unassigned)
satisfied
[2H]C([2H])([2H])n1ncc2c(-c3nc(N)c4c(n3)NC(=O)C4(C(=O)Nc3ccccn3)C3CC3)nc(CCC(F)(F)C(F)(F)F)nc21 (single isomer, unassigned)
not satisfied
[2H]C([2H])([2H])n1ncc2c(-c3nc(N)c4c(n3)NC(=O)C4(C(=O)NCC)C3CC3)nc(CCC(F)(F)C(F)(F)F)nc21 (single isomer, unassigned)
not satisfied

In the following, a different compound is considered.
Challenge: Consider [2H]C([2H])([2H])n1ncc2c(-c3nc(N)c4c(n3)NC(=O)C4(C(=O)NC3CC3)C3CC3)nc(CCC(F)(F)C(F)(F)F)nc21 (single isomer, unassigned) . Does its EC50 lie strictly below 60 nM?
Response given: satisfied

====

assayed.target: sGC α1/β1 heterodimer (Homo sapiens, UniProt Q02108+Q02153)
test.summary: Cell-Based sGC Functional Assay (CASA Assay)
measurement.conditions: CHO-K1/sGC cells, intracellular cGMP by HTRF, 1 hr at 37° C.; IP from 4P fit; presence or absence of 1 μM DETA-NO not given
endpoint.label: EC50 (nM)
Give your result in nM as a bare value.

Illustrative cases are given below, each with its answer.
[2H]C([2H])([2H])n1ncc2c(-c3nc(N)c4c(n3)NC(=O)C4(C)C(=O)NCC)nc(CCC(F)(F)C(F)(F)F)nc21 (single isomer, unassigned)
43
Cn1nc(Cl)c2c(-c3nc(N)c4c(n3)NC(=O)C4(C)c3ccc(F)cc3)nc(CCC(F)(F)C(F)(F)F)nc21 (single isomer, unassigned)
632

Challenge: Provide measured EC50 value, entry: [2H]C([2H])([2H])n1nnc2c(-c3nc(N)c4c(n3)NC(=O)C4(C)c3ccc(Cl)cc3F)nc(CCC(F)(F)C(F)(F)F)nc21 (single isomer, unassigned)
Response given: 429

Challenge: Provide measured EC50 value, entry: COC1(C)C(=O)Nc2nc(-c3nc(CCC(F)(F)C(F)(F)F)nc4c3cnn4C)nc(N)c21 (single isomer, unassigned)
Response given: 44

Challenge: Provide measured EC50 value, entry: COc1ccc(C2(C)C(=O)Nc3nc(-c4nc(CCCC(F)(F)F)nc5c4cnn5C)nc(N)c32)cc1F (single isomer, unassigned)
Response given: 52

Challenge: Provide measured EC50 value, entry: [2H]C([2H])([2H])OC1(C)C(=O)Nc2nc(-c3nc(CCC(F)(F)C(F)(F)F)nc4c3cnn4C)nc(N)c21 (stereo not drawn)
Response given: 113

====

assayed.target: sGC α1/β1 heterodimer (Homo sapiens, UniProt Q02108+Q02153)
Construct: expressed in transfected cells
test.summary: Cell-Based sGC Functional Assay (CASA Assay)
measurement.conditions: CHO-K1/sGC cells; cGMP as percentage of maximum cGMP production of Compound A (=100% activation); read-out: % ACT (percent activation)
The entries below are paired with their reported Emax.
Give your result in % as a bare value.

Illustrative cases are given below, each with its answer.
Cn1ncc2c(-c3nc(N)c4c(n3)NC(=O)C4(C)N)nc(CCC(F)(F)C(F)(F)F)nc21 (single isomer, unassigned)
101
[2H]C([2H])([2H])n1ncc2c(-c3nc(N)c4c(n3)NC(=O)C4(C(N)=O)C(C)C)nc(CCC(F)(F)C(F)(F)F)nc21 (single isomer, unassigned)
93
CCn1ncc2c(-c3nc(N)c4c(n3)NC(=O)C4(C)c3ccccc3)nc(CCC(F)(F)C(F)(F)F)nc21 (single isomer, unassigned)
110

Challenge: Provide measured Emax value, entry: COc1ccc(C2(C)C(=O)Nc3nc(-c4nc(CCCC(F)(F)F)nc5c4cnn5C)nc(N)c32)cc1F (single isomer, unassigned)
Response given: 113

Challenge: Provide measured Emax value, entry: [2H]C([2H])([2H])n1ncc2c(-c3nc(N)c4c(n3)NC(=O)C4(C(=O)NC3CC3)C(C)C)nc(CCC(F)(F)C(F)(F)F)nc21 (single isomer, unassigned)
Response given: 107

Challenge: Provide measured Emax value, entry: [2H]C([2H])([2H])n1ncc2c(-c3nc(O)c4c(n3)NC(=O)C4(C)c3ccc(F)cc3)nc(CCC(F)(F)C(F)(F)F)nc21 (stereo not drawn)
Response given: 93
